Source: paper PMC3949714

So I've got a bunch of substances here, and I need their RT values.
Experiment: RP-HPLC retention time (read by the paper as polarity)
Assay type: physicochemical
Settings: incubation of BE 1-17; Jupiter C4 column, water/acetonitrile gradient with 0.1% formic acid, MS TIC detection
Give bare numbers, in min.

BE 4-15: beta-endorphin fragment, residues 4-15 (FMTSEKSQTPLV; Beta-endorphin; UniProt P01189 240-251, looked up, fragment) | 20.13
BE 2-16: des-tyrosine beta-endorphin fragment, residues 2-16 (GGFMTSEKSQTPLVT; Beta-endorphin; UniProt P01189 238-252, looked up, fragment) | 20.43

Query block: Which value of RT has been reported for BE 3-12: beta-endorphin fragment, residues 3-12 (GFMTSEKSQT; Beta-endorphin; UniProt P01189 239-248, looked up, fragment) in the records?
Result block: 20.53
